- Test system: CAOV3
- runDescription: Primary qHTS to identify gynecologic anti-cancer compounds using libraries of approved drugs and bioactive compounds (AID 1345084); note: % is set by controls: 0 for no effect and ±100 for the full control effect; nearly all actives have a fitted effect of over 55% in size
- measurementContext: Gynecologic cancer cell panel viability, ATPlite luminescence, 48 h; series mostly up to 57.5 µM
Results filed as inconclusive are left out. Active and inactive are the calls of the source. Calls come from the whole dose curve; as a rule, active = well fitted cell-killing curve with a large enough effect; inconclusive = small, poorly fitted or top-dose-only effect, or effect the other way; inactive = flat fitted curve, though single readings scatter.
measurementName: activity change, negative = cytotoxicity

Study these solved cases before continuing.
For reference, reported activity change, negative = cytotoxicity for `COc1cc(/C=C/C(=O)O[C@@H]2C[C@@](O)(C(=O)O)C[C@@H](O)[C@@H]2O)ccc1O` stands at inactive

GET /value?item= CC1(C)CC[C@]2(C(=O)O[C@@H]3O[C@H](CO)[C@@H](O)[C@H](O)[C@H]3O)CC[C@]3(C)C(=CCC4[C@@]5(C)CC[C@H](O[C@@H]6O[C@H](C(=O)O)[C@@H](O[C@@H]7O[C@H](CO)[C@@H](O)[C@H](O)[C@H]7O)[C@H](O)[C@H]6O[C@@H]6O[C@H](CO)[C@@H](O)[C@H](O)[C@H]6O)C(C)(C)C5CC[C@]43C)C2C1 (stereo partly specified) &field=activity change, negative = cytotoxicity returns 5.45% [at 11.6 µM] (inactive)

activity change, negative = cytotoxicity measured on `O=C(Nc1cc(-c2ccccc2)nn1-c1ccccc1)c1ccc([N+](=O)[O-])cc1` = inactive

// activity change, negative = cytotoxicity lookup, compound = `C=C(CO)C(=O)O[C@H]1C[C@@]23O[C@@H]2CC/C(=C/[C@H]2OC(=O)C(=C)[C@H]12)CO[C@H]3O` , result: inactive

Data point: CC(C)C1CCC(C(=O)N[C@@H](Cc2ccccc2)C(=O)O)CC1 (stereo partly specified) ; activity change, negative = cytotoxicity = inactive

--- query ---
`CN1CCN(c2nc(-c3ccc(C(=O)NC4(C(=O)NCC#N)CCCCC4)cc3)cs2)CC1` has a reported activity change, negative = cytotoxicity of inactive
